# method-description: Acute toxicity
# condition-notes: in vivo, iv, I.V.
measurement-type: LD50 (mg/kg)
Numbers only, in mg/kg.

[[record]]
compound = "CNC1C(O)C(OC2C(N)CC(N)C(OC3OC(CN)C(O)C(O)C3N)C2O)OCC1(C)O (centres unmarked) [Antibiotic JI-20A]"
measurement_type = "LD50"
measurement = 115


Let us examine a further case.
Suppose we examine the compound CN[C@@H]1[C@@H](O)[C@@H](O[C@@H]2[C@@H](O)[C@H](O[C@H]3O[C@H](C(C)N)[C@@H](O)[C@H](O)[C@H]3N)[C@@H](N)C[C@H]2N)OC[C@]1(C)O (some centres unmarked) [Antibiotic JI-20B] ; what LD50 value has been reported? 115

Reference source for all entries: patent US4009269A
